Target: Phenylethanolamine N-methyltransferase (Homo sapiens) (UniProt P11086)
Sequence (P11086 whole entry, looked up): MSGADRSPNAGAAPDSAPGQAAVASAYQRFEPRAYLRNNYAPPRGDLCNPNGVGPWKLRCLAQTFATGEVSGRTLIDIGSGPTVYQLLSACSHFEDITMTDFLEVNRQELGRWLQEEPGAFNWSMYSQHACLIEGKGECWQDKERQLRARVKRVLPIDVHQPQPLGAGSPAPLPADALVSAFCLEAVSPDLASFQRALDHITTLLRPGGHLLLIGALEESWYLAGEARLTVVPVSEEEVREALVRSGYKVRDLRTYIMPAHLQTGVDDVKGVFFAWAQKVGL
Test: Confirmatory Screen for Target Class Profiling of Small Molecule Inhibitors of Methyltransferases (AID 1745852)
Conditions: MTase-Glo luminescence, SAH detection, recombinant enzyme; measured here: PNMT max response; stronger effect = lower value
QUANTITY_NAME: activity (%)
One number for each entry, in %.

As a guide, the following entries are already answered.
1) C=C(C(=O)O)[C@@H]1CC[C@H](C)[C@@H]2CC(=O)C(C)=C2C1
-9
2) CC(=O)OC/C(=C/C(=O)O)CC[C@@H]1C(CO)=CC[C@@H]2C(C)(C)CCC[C@@]12C
-5.03
3) O=C(O)CC1(O)C(=O)Nc2ccccc21 (stereo not given)
-0.0725

Provide activity values for the following items, in order.
1. Nc1ncnc2c1ncn2[C@H]1O[C@@H](C(=O)N2CCN(CC(=O)Nc3cccc4c3CNC4=O)CC2)[C@H](O)[C@@H]1O
2. CC1(C)C2CCC1(C)C(OC(=O)C(O)(CC(=O)O)CC(=O)O)C2 (stereo not given)

Marked response:
-35.1
2.73

---

System: CRL-7250
Assay: Cytotoxic Profiling of Annotated Libraries Using Quantitative High-Throughput Screening (AID 1296008); also: % is scaled to controls: 0 for no effect and ±100 for the full control effect; nearly all actives have a fitted effect of over 60% in size
Details: Five cell lines viability, CellTiter-Glo ATP luminescence, 48-72 h; stronger effect = lower value
Results filed as inconclusive are left out.
QUANTITY_NAME: max response (%)
Give bare numbers, in %.

For orientation, consider the following solved cases.
1. CC1(C)C(=O)N2c3ccccc3C(O)(CC(C(=O)O)n3cnc4ccccc4c3=O)C2N1O (configuration not stated)
0.472
2. CC1(C)C=Cc2c(ccc3c2N=C2C(C)(C)[C@@H]4C[C@]56CCCN5C(=O)[C@@]4(C[C@]23O)NC6=O)O1
3.82
3. C/C(=C\CCC(C)CCO)C(=O)OC[C@H]1O[C@@H](O[C@@H]2OC=C(C(=O)O)[C@H]3CC[C@](C)(O)[C@@H]23)C(O)[C@@H](O)C1O (some centres not stated)
3.02

Please give max response for each item listed below.
1. CC1(C)CC[C@]2(C(=O)O[C@@H]3O[C@H](CO[C@@H]4O[C@H](CO[C@@H]5O[C@H](CO)[C@H](O)[C@H](O)[C@H]5O)[C@@H](O)[C@H](O)[C@H]4O)[C@@H](O)[C@H](O[C@@H]4O[C@H](CO)[C@@H](O)[C@H](O)[C@H]4O)[C@H]3O)[C@H](O)C[C@]3(C)C(=CCC4[C@@]5(C)CC[C@H](O[C@@H]6OC[C@@H](O)[C@H](O)[C@H]6O)[C@@](C)(C(=O)O)C5CC[C@]43C)[C@@H]2C1 (some centres not stated)
2. CC(=O)/C=C/C1(O)C(C)=CC(=O)CC1(C)C (configuration not stated)
3. COc1ccc(C(=O)OC2C3C=COC(OC4OC(CO)C(O)C(O)C4O)C3C3(CO)OC23)cc1OC (configuration not stated)
4. COc1cc(-c2ccc(O)cc2)c(OC)c(O)c1C1=CC(=O)OC1CC(=O)O (configuration not stated)
5. CC1(CO)CCCC2(C)C3COC(=O)C3=CC(O)C12 (configuration not stated)
6. Cc1[nH]c2ccccc2c1CC(=O)N[C@@H](Cc1ccccc1)C(=O)N(C)c1ccccc1

Marked response:
[2.11, -1.97, -2.32, 2.67, 1.03, -9.69]

The following compounds each have a reported value; give each one's max response.
1. COc1cc(/C=C/C(=O)OC[C@H]2O[C@@H](OC3CC(C)=C(C(=O)O)C(C)(C)C3)[C@H](O)[C@@H](O)[C@@H]2O)cc(OC)c1O (some centres not stated)
2. CC1(C)CCC[C@@]2(C)[C@H]1[C@H](O)C=C(CO)[C@]2(O)CO

Marked response:
1: -3.13; 2: -0.0206

State recorded max response for all listed compounds.
1. OC[C@@]1(O)CO[C@H](OC[C@H]2O[C@@H](OC(CCCCc3ccc(O)cc3)CCc3ccc(O)cc3)[C@H](O)[C@@H](O)[C@@H]2O)[C@@H]1O (some centres not stated)
2. COC(=O)C1=CO[C@@H](O[C@@H]2O[C@H](CO)[C@@H](O)[C@H](O)[C@H]2O)[C@@H]2C(CO)=CC[C@H]12

Marked response:
1. -9.7
2. 3.17

For each listed entry, give its max response.
1. C[C@]12CCC[C@](C)(C(=O)O)C1[C@@H](O)[C@@H](O)C13CC(CCC12)C(CO)(O[C@@H]1O[C@H](CO)[C@@H](O)[C@H](O)[C@H]1O)C3 (some centres not stated)
2. CC(NC(=O)CC(=O)O)C(=O)Nc1ccccc1C(N)=O (configuration not stated)
3. COc1c(O[C@@H]2O[C@H](CO)[C@@H](O)[C@H](O)[C@H]2O)c(CCC(=O)O)cc2ccoc12
4. CC1(C)CC[C@]2(C(=O)O)CC[C@]3(C)C(=CCC4[C@@]5(C)C[C@H](O)[C@H](O[C@@H]6O[C@H](CO)[C@@H](O)[C@H](O)[C@H]6O)[C@@](C)(CO)C5[C@H](O)C[C@]43C)[C@@H]2C1 (some centres not stated)

Marked response:
1. 4.72
2. -2.72
3. -9.14
4. 3.07

Give max response for all compounds that follow.
1. C=C1C[C@]23C[C@H]1CC[C@H]2[C@]1(C)CC[C@H](O)[C@@](C)(C(=O)O)[C@H]1[C@@H]3C(=O)O
2. CC(C)(O)/C=C/C(=O)[C@](C)(O)[C@H]1[C@H](O)C[C@@]2(C)[C@@H]3CC=C4[C@@H](C=C(O[C@@H]5O[C@H](CO)[C@@H](O)[C@H](O)[C@H]5O)C(=O)C4(C)C)[C@]3(C)C(=O)C[C@]12C
3. C/C=C/C=C/[C@@H]1O[C@](O)([C@H](CC)C(=O)NC/C=C/C=C(\C)[C@@H](OC)[C@@H](C)[C@@H]2O[C@H](/C=C/C=C/C=C(\C)C(=O)c3c(O)ccn(C)c3=O)[C@H](O)[C@@H]2O)[C@H](O)[C@H](O)C1(C)C
4. CCCN(CCN1CCN(c2ccccc2OC)CC1)C1CCc2ncsc2C1 (configuration not stated)
5. COc1c2c(c(C)c3c1C(=O)OC3)OC1(C)CC(O)C34OC(OC)(CC(O)C3(C)C1C2)OC4(C)C (configuration not stated)
6. CC(C)=CCC(O)[C@](C)(O)C1[C@H](O)C[C@@]2(C)C3CC=C4C(C[C@H](O)[C@@H](O[C@@H]5O[C@H](CO)[C@@H](O)[C@H](O)[C@H]5O)C4(C)C)[C@]3(C)C(=O)C[C@]12C (some centres not stated)
7. COc1cccc(C(=O)NCCNc2nc3cc(C)cc(C)c3cc2C#N)c1
8. CC(=O)OC12CC(C)C(OC(=O)c3ccccc3)C1/C=C(/C)C(OC(=O)c1ccccc1)CC(=O)C(C)(C)/C=C/C(C)C2=O (configuration not stated)

Marked response:
[-9.09, -3.34, -0.994, -14.3, 0.784, 4.58, -1.46, -26.4]

Take each entry in turn and give its max response.
1. CC1(C)CC[C@]2(C(=O)O)CC[C@]3(C)C(=CCC4[C@@]5(C)CC[C@H](O[C@@H]6O[C@H](C(=O)O)[C@@H](O)[C@H](O)[C@H]6O)C(C)(C)C5CC[C@]43C)C2C1 (some centres not stated)
2. CC(=O)OCC1OC(O[C@H]2CC[C@]34C[C@]35CC(O)[C@]3(C)[C@@H]([C@H](C)CC/C=C(\C)C(=O)O)C(O)C[C@@]3(C)C5CC[C@H]4C2(C)C)C(O)C(O)C1OC1OCC(O)C(O)C1O (some centres not stated)

Marked response:
[-10.5, -0.106]

---

System: C33A
Test: Primary qHTS to identify gynecologic anti-cancer compounds using libraries of approved drugs and bioactive compounds (AID 1345084); also: % is scaled to controls: 0 for no effect and ±100 for the full control effect; nearly all actives have a fitted effect of over 55% in size
Conditions: Gynecologic cancer cell panel viability, ATPlite luminescence, 48 h; series mostly up to 57.5 µM
Records with an inconclusive call do not appear. Calls of active or inactive are those of the source. The call rests on the fitted dose curve; in most records, active means well fitted cell-killing curve with a large enough effect; inconclusive means small, poorly fitted or top-dose-only effect, or effect the other way; inactive means flat fitted curve, though single readings scatter.
QUANTITY_NAME: activity change, negative = cytotoxicity

1. C=CC(C)(CC/C=C(\C)C(=O)OC[C@H]1O[C@@H](OC(C)(C=C)CC/C=C(\C)C(=O)O[C@H]2[C@H](O)[C@@H](O)[C@H](OC(C)(C=C)CC/C=C(\C)C(=O)O)O[C@@H]2CO)[C@H](O)[C@@H](O)[C@@H]1O)O[C@@H]1O[C@H](CO)[C@@H](O)[C@H](O)[C@H]1O (stereo partly specified)
-1.99% [at 11.6 µM] (inactive)
2. CC(C)(O)/C=C/C(=O)[C@](C)(O)[C@H]1[C@H](O)C[C@@]2(C)[C@@H]3CC=C4[C@@H](C=C(O[C@@H]5O[C@H](CO)[C@@H](O)[C@H](O)[C@H]5O)C(=O)C4(C)C)[C@]3(C)C(=O)C[C@]12C
inactive
3. C=C1CCC(OC(C)=O)C2(C)CC3OC(=O)C(C)=C3CC12 (stereo unspecified)
inactive
4. CC(C)c1ccc2c(c1)C(O)CC1C(C)(C(=O)O)CCCC21C (stereo unspecified)
inactive
5. CC(=O)c1ccc(O[C@@H]2OC[C@@H](O)[C@H](O)[C@H]2O[C@]2(CO)O[C@H](CO)[C@@H](O)[C@@H]2O)c(O)c1
inactive

Provide activity change, negative = cytotoxicity values for the following items, in order.
1. OC[C@H]1O[C@@H](O[C@H]2[C@H](O)[C@@H](CO)O[C@@H](OCc3ccccc3)[C@@H]2O[C@@H]2OC[C@](O)(CO)[C@H]2O)[C@H](O)[C@@H](O)[C@@H]1O
2. CCCNCCOc1ccc(NC(=O)c2c[nH]c3c2C(=O)CCC3)cc1F
3. COc1ccc(/C=C/C(=O)O[C@@H]2[C@@H](O)[C@@H](O)[C@H](O[C@H]3[C@@H]4C=CO[C@@H](O[C@@H]5O[C@H](CO)[C@@H](O)[C@H](O)[C@H]5O)[C@@H]4[C@@]4(CO)O[C@@H]34)O[C@H]2C)cc1
4. COC(=O)C1=CO[C@@H](O[C@@H]2O[C@H](CO)[C@@H](O)[C@H](O)[C@H]2O)[C@@H]2C(CO)=CC[C@H]12
5. CC(=O)NC1CC(=O)C23C(=O)NC(Cc4c[nH]c5ccccc45)C2C(C)=C(C)C(O)C3/C=C/CC(C)/C=C(/C)C(O)C1O (stereo unspecified)
6. CNc1nc(Nc2cn(C(C)(C)C#N)nc2C)ncc1C(F)(F)F
7. CC1(C)CC[C@]2(C(=O)O)CC[C@]3(C)C(=CCC4[C@@]5(C)C[C@H](O)[C@H](O[C@@H]6O[C@H](CO)[C@@H](O)[C@H](O)[C@H]6O)[C@@](C)(CO)C5[C@H](O)C[C@]43C)[C@@H]2C1 (stereo partly specified)
8. C=C(CCO[C@@H]1O[C@H](CO)[C@@H](O)[C@H](O)[C@H]1O)C(=O)O

Marked response:
1: inactive; 2: inactive; 3: inactive; 4: inactive; 5: inactive; 6: inactive; 7: inactive; 8: inactive

Items follow; give activity change, negative = cytotoxicity for each.
1. CC1(C)CCC[C@]2(C)C1CC=C(CO)[C@H]2CC/C(=C/CO)CO (stereo partly specified)
2. CC(=O)O[C@H]1C[C@@H](O)C(C)(C)C2C[C@@H](OC(C)=O)[C@]3(C)C(CC[C@@]4(C)[C@H](c5ccoc5)OC(=O)[C@H]5O[C@]543)[C@]21C (stereo partly specified)
3. C=C1CCC2(OC1)OC1CC3C4CC=C5CC(O)CC(O[C@@H]6OC[C@H](OC(=O)C(O)C(C)CC)[C@H](O)[C@H]6O[C@@H]6O[C@@H](C)[C@H](O)[C@@H](O)[C@H]6O)C5(C)C4CCC3(C)C1C2C (stereo partly specified)

Marked response:
1: inactive; 2: inactive; 3: 4.8% [at 11.6 µM] (inactive)
